- System: MDA-MB-435 melanoma
- Method description: NCI-60 one-dose screen, 48 h
- Conditions: 10 µM
Compounds without any hit were thinned out: in the full panel of roughly 83,000, 20% have a hit. Calls of active or inactive are those of the source. How the source made its calls: active means growth percent below 10; inactive means the rest.
Mark one answer only. Choices: y (active), n (inactive)

Observe how each entry below is paired with its result.
{"Compound": "Cc1nc2n(c(=O)c1CCN1CCC(c3noc4cc(F)ccc34)CC1)CCC[C@@H]2O", "Group": "n"}
{"Compound": "O=C(Nc1ccc(OCc2nnc(-c3ccc(Cl)cc3)o2)c(F)c1)Nc1ccc(Cl)c(C(F)(F)F)c1", "Group": "y"}
{"Compound": "O=S(=O)(Oc1ccc(-c2ccc3sccc3c2)cc1)c1ccccc1", "Group": "n"}
{"Compound": "CCOC(=O)c1cc(C(=O)c2cc(OC)c(OC)c(OC)c2)n2nc(C)ccc12", "Group": "y"}
{"Compound": "CCOC(=O)c1sc2ncnc(Nc3ccc4c(cnn4C(=O)Nc4ccc(C)c(Cl)c4)c3)c2c1C", "Group": "n"}
{"Compound": "COc1ccc2c(c1)C(=O)/C(=C/c1ccc([N+](=O)[O-])o1)O2", "Group": "y"}
{"Compound": "COc1ccc(/C=C2\\CCCC3=C2N=C2SC(C)=CN2C3c2ccc(OC)cc2)cc1 (centres undefined)", "Group": "n"}
{"Compound": "CC(=O)Nc1ccc(CC[C@H]2CCC/C=C/[C@@H]3C[C@H](O)C[C@H]3[C@H](O)/C=C/C(=O)O2)cc1", "Group": "n"}

Please indicate how the test categorized NS(=O)(=O)c1ccc(Br)cc1 .
n

Please indicate how the test categorized N#Cc1cnn(C(=O)c2nn(-c3ccc(Cl)cc3)cc2O)c1N .
n

Please indicate how the test categorized COc1cc(-c2csc(NC(=O)Nc3cc(C(F)(F)F)cc(C(F)(F)F)c3)n2)cc(OC)c1OC .
n

Please indicate how the test categorized COc1cc2cc(Oc3ccc(NC(=O)c4ccccc4)cc3)c(C)nc2cc1OC .
n

Please indicate how the test categorized CCCC1(CN2c3ccccc3Sc3ccc(Cl)cc32)CCN(CC)C1 (centres undefined) .
y

Please indicate how the test categorized CC(=O)O[C@@]12CO[C@@H]1C[C@H](O)[C@@]1(C)C(=O)[C@H](O)C3=C(C)[C@@H](OC(=O)[C@H](O)[C@@H](NC(=O)OC(C)(C)C)c4ccccc4)C[C@@](O)([C@@H](OC(=O)c4ccccc4)C12)C3(C)C (some centres undefined) .
y

Please indicate how the test categorized CCN(CC)CC(=O)N(CC)c1ccc(C)c(Cl)c1 .
n

Please indicate how the test categorized O=C(Nc1cccc2c1CCCC2)c1cc2ccccc2cc1O .
n

Please indicate how the test categorized O=C(CCc1nnc2sc(-c3cc(O)c(O)c(O)c3)nn12)c1nc2ccccc2[nH]1 .
n

Please indicate how the test categorized CN1CCN(c2cc3c(cc2F)c(=O)c(C(=O)O)cn3-c2ccc(F)cc2)CC1 .
n

Please indicate how the test categorized COc1ccc(Nc2cnc3cc(NS(=O)(=O)c4ccc(C)cc4)ccc3n2)cc1 .
y

* * *

- Tested on: NCI-H23 lung
- Method description: NCI-60 one-dose screen, 48 h (100 = growth as untreated, 0 = no growth, -100 = all killed)
- Conditions: 10 µM
Compounds without any hit were thinned out: in the full panel of roughly 83,000, 20% have a hit.
Response field label takes class 1 when growth is strictly below 70% and class 0 in all other cases.

Observe how each entry below is paired with its result.
{"Compound": "COc1cc2c3c(n(C4CCN(C)CC4)c(=O)c2cc1OC)-c1cc2c(cc1C3=O)OCO2", "Group": "class 1"}
{"Compound": "COc1ccc(C(=O)c2ccccc2CN2C(=O)c3ccccc3C2=O)cc1", "Group": "class 0"}
{"Compound": "CSc1nc2c(c(=O)n1C)CN(Cc1ccccc1)C(=O)CN2", "Group": "class 0"}
{"Compound": "CN(C)CCC1(c2ccccc2)CCN(C)C1=O (stereo not drawn)", "Group": "class 0"}
{"Compound": "NS(=O)(=O)Oc1ccc(-c2ccc3sccc3c2)cc1", "Group": "class 0"}

Quick check: growth of C=C(NC(=O)C(=C)NC(=O)c1csc(C2=NC3c4csc(n4)C4NC(=O)c5csc(n5)C(C(C)(O)C(C)O)NC(=O)C5CSC(=N5)C(=CC)NC(=O)C(C(C)O)NC(=O)c5csc(n5)C3(CC2)NC(=O)C(C)NC(=O)C(=C)NC(=O)C(C)NC(=O)C(C(C)CC)NC2C=Cc3c(C(C)O)cc(nc3C2O)C(=O)OC4C)n1)C(N)=O (stereo not drawn) under 70%?
class 1
